System: OVCAR-4 ovarian
Assay: NCI-60 one-dose screen, 48 h (100 = growth as untreated, 0 = no growth, -100 = all killed)
Conditions: 10 µM unless noted
Method: Growth inhibition of the OVCAR-4 human tumor cell line is measured as a screen for anti-cancer activity. Cells are grown in 96 well plates and exposed to the test compound for 48 hours. Compounds are tested at a single concentration, which is 10^-5 M for most compounds. The reported endpoint is percent growth (GI% or GIPRCNT), where numbers from 0 - 100% represent growth inhibition, and numbers from -100% - 0 represent cell death. For example, a value of 40 represents 60% growth inhibition. […]
The panel holds about 83,000 compounds, 20% with a hit somewhere; the sample as a whole holds those more often.
Measured attribute: growth (%)

>  <Smiles structure>
Oc1cc(/C=C/c2nc(N3CCOCC3)c3cc(Cl)c(Cl)cc3n2)cc(O)c1O

>  <Measured attribute>
growth

>  <Endpoint value>
110

$$$$
>  <Smiles structure>
Clc1ccc2c(NCCNc3nc(-c4ccccc4)cc(-c4ccccc4)n3)ccnc2c1

>  <Measured attribute>
growth

>  <Endpoint value>
-66.4

$$$$
>  <Smiles structure>
Cn1cc(-c2csc(-c3cn(CCNC(=O)OC(C)(C)C)c4ccccc34)n2)c2cccnc21

>  <Measured attribute>
growth

>  <Endpoint value>
49.2

$$$$
>  <Smiles structure>
COc1ccc(-c2nc(Nc3ccc(-c4nc5ccccc5[nH]4)cc3)nc(N3CCOCC3)n2)cc1

>  <Measured attribute>
growth

>  <Endpoint value>
59.8

$$$$
>  <Smiles structure>
CC(C)C[C@@H](NC(=O)[C@@H](Cc1ccccc1)NC(=O)c1cnccn1)B1O[C@H]2[C@H](O)[C@@H](C(=O)NCCCC[C@@H]3NC(=O)[C@@H](Cc4ccccc4)NC(=O)[C@H](CC(=O)O)NC(=O)CNC(=O)[C@H](CCCN=C(N)N)NC3=O)O[C@@H](CN)[C@H]2O1

>  <Measured attribute>
growth

>  <Endpoint value>
-27.9

$$$$
>  <Smiles structure>
COc1cc(/C=N/Nc2ncnc3c2c(C)nn3-c2ccc(F)cc2)ccc1O

>  <Measured attribute>
growth

>  <Endpoint value>
90.3

$$$$
>  <Smiles structure>
Cn1cc(-c2csc(-c3cn(CCNC(=O)OC(C)(C)C)c4ccc(F)cc34)n2)c2cccnc21

>  <Measured attribute>
growth

>  <Endpoint value>
43.8

$$$$
>  <Smiles structure>
N#C/C(=C\c1ccc(-c2ccc(Br)cc2)o1)c1nc(-c2cccs2)cs1

>  <Measured attribute>
growth

>  <Endpoint value>
96.3

$$$$
